Assignment: determine reported Metabollic rate for the given molecules.
conditions: Sprague-Dawley, rat, pH 7.4
Answer format: numeric, % implied, no suffix.

For the molecule shown here, "Ic1ccc(-c2ccc(I)cc2)cc1" , give the reported Metabollic rate.
82

What would you report for CC12CC1(C)C(=O)N(c1cc(Cl)cc(Cl)c1)C2=O (stereo not shown) ?
55

What would you report for "CC(C)(c1ccc(O)cc1)c1ccc(O)cc1" ?
52

What would you report for Cc1cc(C(C#N)c2ccc(Cl)cc2)c(Cl)cc1NC(=O)c1cc(I)cc(I)c1O (stereo not shown) ?
49

###

Assignment: determine reported Metabollic rate for the given molecules.
assay: In vitro metabolic reaction using rat liver S9 fraction with LC-MS / GC-MS metabolic profiling; conditions: rat liver S9, phase I+II reaction vs inactivated S9 control; BDE28 and 4,4'-DIDBP by GC-MS, others by LC-MS
Form field: result (number plus unit)

For the molecule shown here, C[C@]12CC[C@@H]3c4ccc(O)cc4CC[C@H]3[C@@H]1CC[C@@H]2O [E2, 17β-estradiol] , give the reported Metabollic rate.
44%

What would you report for O=C(c1ccc(O)cc1O)c1ccc(O)cc1O [BP-2, 2,2',4,4'-tetrahydroxybenzophenone] ?
11%

What would you report for O=C(Nc1ccc(Oc2ccc(Cl)cc2)c(Cl)c1)c1cc(I)cc(I)c1O [Rafoxanide, rafoxanide] ?
51%

What would you report for "Brc1ccc(Oc2ccc(Br)cc2Br)cc1" ?
99%

###

Tested on: thyroid hormone receptor (THR)
Assay: hTRE_HeLa THR transcriptional activity (nano luciferase reporter) assay with rat liver S9 mixtures
Type: cell-based, human
Settings: hTRE_HeLa cells; parent, inactive S9, phase I and phase I+II groups; before and after S9 reaction
Method: The hTRE_HeLa cell line, obtained from the MFDS, was used to detect thyroid hormone receptor (THR) agonists through transcriptional activation analysis, utilizing a stably modified thyroid receptor-reactive human cervical cancer cell line along with one plasmid from a nano luciferase reporter. […] The vehicle control (VC) included only 0.145% of DMSO containing 9 × 10^-12 M 9-cis-Retinoic acid. […] The % to PC value of EDCs was calculated to (EDCs – VCtest) / (PC – VCcontrol). […]
Where a name gives a salt, the structure may show the parent alone.
property: THR agonist classification (positive if >= 10% of activity of 100 nM T3)

Solved cases (10 shown):
compound: COc1c(O)cc2oc(-c3ccc(O)cc3)cc(=O)c2c1O [Hispidulin, hispidulin]
recorded_value: THR agonistic negative
--
compound: CC12CC1(C)C(=O)N(c1cc(Cl)cc(Cl)c1)C2=O (centres unmarked) [Procymidone, procymidone]
recorded_value: THR agonistic negative
--
compound: Cc1cc(OCC(=O)O)cc(C)c1Cc1ccc(O)c(C(C)C)c1 [GC-1, sobetirome]
recorded_value: THR agonistic positive
--
compound: O=C(O)CCc1cc(I)c(Oc2ccc(O)cc2)c(I)c1 [DITPA, 3,5-diiodothyropropionic acid]
recorded_value: THR agonistic positive
--
compound: O=C(Nc1ccc(Oc2ccc(Cl)cc2)c(Cl)c1)c1cc(I)cc(I)c1O [Rafoxanide, rafoxanide]
recorded_value: THR agonistic negative
--
compound: CC(C)(c1ccc(O)cc1)c1ccc(O)cc1 [BPA, bisphenol A]
recorded_value: THR agonistic negative
--
compound: Cc1cc(C(C#N)c2ccc(Cl)cc2)c(Cl)cc1NC(=O)c1cc(I)cc(I)c1O (centres unmarked) [Closantel, closantel]
recorded_value: THR agonistic negative
--
compound: Brc1ccc(Oc2ccc(Br)cc2Br)cc1 [BDE28, BDE No. 28]
recorded_value: THR agonistic negative
--
compound: O=C(c1ccc(O)cc1O)c1ccc(O)cc1O [BP-2, 2,2',4,4'-tetrahydroxybenzophenone]
recorded_value: THR agonistic negative
--
compound: CCCCc1oc2ccccc2c1C(=O)c1cc(I)c(OCCN(CC)CC)c(I)c1 [Amiodarone, amiodarone hydrochloride]
recorded_value: THR agonistic negative

For the compound shown here, N[C@@H](Cc1cc(I)c(Oc2ccc(O)c(I)c2)c(I)c1)C(=O)O [T3, 3,3’,5-triiodo-L-thyronine] , give the reported THR agonist classification (positive if >= 10% of activity of 100 nM T3).
THR agonistic positive

What would you report for C[C@]12CC[C@@H]3c4ccc(O)cc4CC[C@H]3[C@@H]1CC[C@@H]2O [E2, 17β-estradiol] ?
THR agonistic negative

What would you report for N[C@@H](Cc1cc(I)c(Oc2cc(I)c(O)c(I)c2)c(I)c1)C(=O)O [T4, Levothyroxine] ?
THR agonistic positive

What would you report for Ic1ccc(-c2ccc(I)cc2)cc1 [4,4’-DIDBP, 4,4'-diiodobiphenyl] ?
THR agonistic negative
